- Test system: Pseudomonas aeruginosa BA
- Assay Explanation: Experimental systemic septicaemia in the mouse
- Type: in vivo
- Setup Conditions: sc, 96 h, P. aeruginosa BA, albino mice, s.c. 1, 3 and 5 hours after infection, survival after 4 days, read-out: ED50
Experimental Readout: ED50 (mg/kg)
Give just the number in mg/kg; leave the unit off.

{"Structure Smiles": "Cc1cc(SCC2=C(C(=O)O)N3C(=O)[C@@H](NC(=O)/C(=N\\OCc4ccc(O)c(O)c4F)c4csc(N)n4)[C@H]3SC2)n2nc(COC(=O)c3ccc(O)c(O)c3)nc2n1", "Experimental Readout": "ED50", "Measured Result": 0.24}

Please tell me: ED50 of "Cc1cc(SCC2=C(C(=O)O)N3C(=O)[C@@H](NC(=O)/C(=N\OCc4ccc(O)c(O)c4)c4csc(N)n4)[C@H]3SC2)n2nc(CNS(=O)(=O)c3ccc(O)c(O)c3)nc2n1" , system Pseudomonas aeruginosa BA? 0.12

Kindly state the measured ED50 obtained for "CC(C)(O/N=C(\C(=O)N[C@@H]1C(=O)N2C(C(=O)O)=C(CS(=O)(=O)c3ccc(O)c(O)c3)CS[C@H]12)c1csc(N)n1)C(=O)NNC(=O)c1ccc(O)c(O)c1" with Pseudomonas aeruginosa BA. 0.1
